tested on: OVCAR-3 ovarian; experiment: NCI tumour cell line growth inhibition, 48 h
recorded.metric: TGI

// COC(=O)c1ccc(C)cc1C1CN=NC12Cc1c(C)cccc1C2=O (configuration not stated) : TGI value = > 100 µM

response.value for `COc1c(O)ccc(/C=N/NC(=S)NCOCCOC(C)=O)c1OC` (field: TGI) = > 100 µM

Per the record, `COC(=O)/C=C1\C(=O)Nc2ccc(Br)cc21` has TGI of 2.95 µM

TGI reported for this compound C=CCN=C1NC(=O)C(CC(=O)Nc2ccc([N+](=O)[O-])cc2[N+](=O)[O-])S1 (configuration not stated) : > 100 µM

// TGI lookup, compound = `O=C(O)c1cc(-c2ccc3cc(O)c(O)cc3c2)ccc1O` , result: > 12.5 µM

Per the records, this compound ( `COc1cc(/C=C/C(=O)c2cccc(-n3cc(-c4ccccc4)[nH]c3=O)c2)ccc1O` ) has TGI equal to 6.06 µM

Record N/N=C1\C(=O)N(c2ccc(Cl)c(Cl)c2)C(=O)C1C(=O)Nc1ccc(Cl)c(Cl)c1 (configuration not stated) . Reported TGI: > 100 µM

TGI measured on `O=C(N/N=C/c1coc2ccc(Cl)cc2c1=O)c1cc(O)c(O)c(O)c1` = > 100 µM

TGI recorded for this compound, `CC1=CC2=C(C=O)C(=O)[C@](C)(O)[C@@H](O)C2=CO1` , is 5.58 µM

Entry `COc1ccc2[nH]c(=O)cc(C)c2c1[N+](=O)[O-]` , TGI reported as > 100 µM

For record `Cc1c2cnccc2c(C)c2c1c1ccccc1n2CCCCCCCl` the listed TGI is > 50 µM

Record `Cc1ccc(S(=O)(=O)NC(=O)Nc2ncn[nH]2)cc1` . Reported TGI: > 100 µM

Entry `CCOP(=O)(OCC)/C(C#N)=C/c1cccn1C` , TGI reported as > 100 µM

Documented TGI of `COC(=O)c1c(C)c2c(c(C)c1O)OC(=O)c1c(C)cc(O)c(C=O)c1O2` : > 100 µM

# TGI of `Cc1nc2ccccc2c(/C=C/c2ccc(C(F)(F)F)cc2)c1C(=O)/C=C/c1ccccc1` = 2.52 µM

The compound O=C1Sc2sc(=S)sc2SC1c1ccccc1 (configuration not stated) showed TGI equal to > 31.6 µM

Kindly note the recorded TGI for `CN1C=C(C(N)=O)Cc2ccsc21` , which is > 100 µM

* * *

tested on: NCI-H23 lung; experiment: NCI tumour cell line growth inhibition, 48 h
recorded.metric: TGI

Looking up `C=Cc1c(-c2ccccc2)cnc2[nH]c3ccccc3c12` , I found its TGI recorded as > 50 µM

Item: CC1=NN(c2ccccc2Cl)C2(C1)C(Cl)C(=O)N2c1nc2ccccc2s1 (centres undefined) | TGI: > 100 µM

// TGI value for `Cc1ccnn1CCc1ccc(Cl)cc1Cl` : > 100 µM

// TGI lookup, compound = `O=C(O)CNc1ncc2c(n1)-c1ccccc1OC2` , result: > 100 µM

* * *

Field: TGI. Provide a value for each of the molecules that follow.
test system: 786-0 renal; assay: NCI tumour cell line growth inhibition, 48 h

The recorded TGI for `O=C1c2ccccc2C(=O)N1CCN(CCN1C(=O)c2ccccc2C1=O)Cc1ccccc1` is > 100 µM

Entry `COc1cc2c(cc1OCCCN1CCOCC1)N=C[C@@H]1CCCN1C2=O` , TGI reported as > 100 µM

The recorded TGI for `Cc1ccc2c(n1)C(=O)c1cc(C)c(C)cc1C2=O` is > 100 µM

For record `COc1cc2c(/C=C3/C(=O)Nc4cc(C)c(O)cc43)c(Cl)[nH]c2cc1C` the listed TGI is 8.91 µM

Recorded result, `CCC(=O)NC(NNS(=O)(=O)c1ccc(C)cc1)(C(F)(F)F)C(F)(F)F` , TGI: > 100 µM

`CC1=C(C(=O)Nc2cc(F)c(F)cc2F)C(c2ccc(N(C)C)cc2)C(C(=O)Nc2cc(F)c(F)cc2F)=C(C)N1` yielded TGI of > 100 µM

The recorded TGI for `O=C1c2ccccc2-n2c1nc1ccc([N+](=O)[O-])cc1c2=O` is > 100 µM

Measured TGI of `COC(=O)c1c(C)c2c(c(C)c1O)OC(=O)c1c(C)cc(O)c(C=O)c1O2` : > 100 µM

For record `CC(C)(C(=O)N(C(=O)N1CCN(c2ccccc2)CC1)S(=O)(=O)c1ccccc1)c1ccc(Cl)cc1` the listed TGI is > 100 µM

// recorded TGI for COc1ccc2c(c1)C1Oc3ccccc3CC1CO2 (stereo unspecified) : > 100 µM

Input `NC(=S)N/N=C1\CCc2ccccc2C1` . Output TGI: > 100 µM

Notebook: `COC(=O)/C=C1/OC(c2ccccc2)=C(Br)C1=O` , TGI read as 81.6 µM

Documented TGI of `CC(=O)CC(=O)Nc1ccc(OS(N)(=O)=O)cc1` : > 100 µM

Noted for `COc1cnc2oc3ccc(O)cc3c2c1-c1ccccc1` : its TGI reads > 100 µM

The molecule C=C1C(=O)OC2/C=C(\CO)C3OC3C3OC3(C)CC(OC(=O)/C(=C/C)COC(C)=O)C12 (stereo unspecified) showed TGI equal to 5.36 µM

Documented TGI of CC1(C)CCOC(Sc2ccccc2)C1 (stereo unspecified) : > 100 µM

Looking up `O=NN(CC(=O)NNc1ccccc1)CC(=O)NNc1ccccc1` , I found its TGI recorded as > 100 µM

Reported TGI for `O=[N+]([O-])C(=C1c2ccccc2-c2ccccc21)[N+](=O)[O-]` was > 100 µM

Sure, the documented TGI for `COC(=O)c1cc2c3cc(Cl)ccc3[nH]c2c2ncccc12` is > 100 µM

For reference, reported TGI for O=C(O)C(C1NCCS1)N1C(=O)c2ccccc2C1=O (stereo unspecified) stands at > 100 µM

For record `O=C(NCCc1nccs1)c1cnc2c(S)cccc2c1` the listed TGI is 36 µM

Reported TGI for `C(#Cc1ccccc1C#Cc1cnccn1)c1cnccn1` was > 100 µM

Measured TGI of `COP(=O)(OC)[C@@](O)(c1ccccc1)[C@@H](O)[C@@H](O)c1ccccc1` : > 100 µM

TGI measured on `CCOC(=O)c1nc2sc(Cl)cn2c1/C=N/N=C(N)N` = 39.8 µM

The recorded TGI for entry `CN(C)Cc1nsc(N(C)C)n1` equals > 100 µM

For record `CC1=NN(c2nc(N)nc(CCl)n2)C(C)(C)C1` the listed TGI is 15.9 µM

Data credit: PubChem BioAssay (NCI)
